Sourced from patent US11426397B2

# pEC50, in vitro inhibition of cAMP per record follows
EXPERIMENTAL SYSTEM: GPR6 receptor expressed in CHO-K1 cells (Homo sapiens, UniProt P46095)
Construct: expressed in transfected cells
Sequence (P46095 whole entry): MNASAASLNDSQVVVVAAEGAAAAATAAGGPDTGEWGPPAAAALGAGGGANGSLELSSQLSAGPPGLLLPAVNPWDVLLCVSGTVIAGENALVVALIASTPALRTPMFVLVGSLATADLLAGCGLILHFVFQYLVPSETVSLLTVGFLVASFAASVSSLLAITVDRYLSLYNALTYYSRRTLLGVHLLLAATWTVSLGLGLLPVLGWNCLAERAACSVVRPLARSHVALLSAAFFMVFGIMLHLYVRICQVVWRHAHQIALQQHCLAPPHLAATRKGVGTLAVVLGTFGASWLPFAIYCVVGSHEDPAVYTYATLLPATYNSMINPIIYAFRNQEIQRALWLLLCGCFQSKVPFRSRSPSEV
TEST DESCRIPTION: In vitro inhibition of cAMP (EC50), cell-based HTRF cAMP assay
CONDITION SET: inhibition of constitutive cAMP activity of GPR6 in CHO-K1 cells
Keep it simple and answer with nothing but the number.

Below are worked cases with known answers.
[[record]]
molecule = "COc1ncccc1C(=O)Nc1cc(C#N)ccc1N1CCN(Cc2cccs2)CC1 [Example 72]"
readout_number = 6.6

[[record]]
molecule = "COc1ccncc1C(=O)Nc1cnc(C)cc1N1CCC(Oc2ccc(F)cc2F)CC1 [Example 263]"
readout_number = 7.1

[[record]]
molecule = "COc1nn(C)cc1C(=O)Nc1cc(C#N)ncc1N1CCN(Cc2ccc(F)c(F)c2F)CC1 [Example 266]"
readout_number = 6.8

[[record]]
molecule = "Cc1ccc2ncc(C(=O)Nc3cc(C#N)ccc3N3CCC(Oc4ccc(F)cc4F)CC3)c(=O)n2c1 [Example 201]"
readout_number = 6.8

[[record]]
molecule = "COc1cnc(C(=O)Nc2cnc(C)cc2N2CCC(Oc3ccc(F)cc3F)CC2)cn1 [Example 142]"
readout_number = 6.2


Can you look up the measured pEC50, in vitro inhibition of cAMP of Cc1cc(C(=O)Nc2cc(C#N)ccc2N2CCC(Oc3ccc(F)cc3F)CC2)nc(C)n1 [Example 135] for me? 6.8

Can you look up the measured pEC50, in vitro inhibition of cAMP of Cc1sc2ncc(C(=O)Nc3cc(C#N)ccc3N3CCC(Oc4ccc(F)cc4F)CC3)c(=O)n2c1C [Example 198] for me? 6.4

Can you look up the measured pEC50, in vitro inhibition of cAMP of COc1ccc(OC2CCN(c3ccc(S(C)(=O)=O)cc3NC(=O)c3cn(CF)nc3OC)CC2)c(F)c1 [Example 2] for me? 7.0

Can you look up the measured pEC50, in vitro inhibition of cAMP of CCOc1ncccc1C(=O)Nc1cc(C#N)ccc1N1CCC(Oc2ccc(F)cc2F)CC1 [Example 28] for me? 6.6

Can you look up the measured pEC50, in vitro inhibition of cAMP of COc1ccc(C(=O)Nc2cc(C#N)ccc2N2CCC(Oc3ccc(F)cc3F)CC2)nn1 [Example 136] for me? 6.8

Can you look up the measured pEC50, in vitro inhibition of cAMP of N#Cc1ccc(N2CCC(Oc3ccc(F)cc3F)CC2)c(NC(=O)c2ccon2)c1 [Example 117] for me? 6.3
